Data provenance is the supplement of paper PMC3414501.

# CDA2-GFP sporulation assay sensitivity score per record follows
System: S. cerevisiae SK1 pCDA2-eGFP (USY613), sporulating;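 note: active if sensitivity score above 5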
Test: CDA2-GFP sporulation assay sensitivity score (z-score vs DMSO controls); higher = stronger inhibition of sporulation, active = hit call of the paper

Below, 2 molecules whose answers are already recorded.
CC(c1cc2ccccc2s1)N(O)C(N)=O (stereo not drawn) [Zileuton] (stock concentration (mM, diluted 1:100): 10)
-0.22 (inactive)
COc1ccc2[nH]c([S+]([O-])Cc3ncc(C)c(OC)c3C)nc2c1 (stereo not drawn) [Esomeprazole mg] (stock concentration (mM, diluted 1:100): 4.8)
3.2 (inactive)

Query: Given Nc1ccc2cn[nH]c2c1 [6-Aminoindazole] (stock concentration (mM, diluted 1:100): 10) , state its recorded CDA2-GFP sporulation assay sensitivity score.
Response: 2.67 (inactive)

====

# growth sensitivity score per record follows
System: S. cerevisiae AD1-9 (efflux-pump deficient), vegetative growth in YPD
Experiment: growth sensitivity score (doubling time z-score vs DMSO controls); higher = slower growth, strongly negative scores also mark growth inhibition (complete suppression), active = hit call of the paper

Query: Given C[C@@H]1C[C@H]2[C@@H]3CCC4=CC(=O)C=C[C@]4(C)[C@@]3(F)[C@@H](O)C[C@]2(C)[C@H]1C(=O)CO [Desoximetasone] (stock concentration (mM, diluted 1:100): 10) , state its recorded growth sensitivity score.
Response: 2.17 (active)

Query: // repeat for COCCCOc1ccnc(C[S+]([O-])c2nc3ccccc3[nH]2)c1C (stereo not drawn) [Rabeprazole] (stock concentration (mM, diluted 1:100): 10.6) and report
Response: 31.5 (active)

Query: // repeat for CCOC(=O)[C@H](CCc1ccccc1)N[C@@H](C)C(=O)N1[C@H](C(=O)O)C[C@@H]2CCC[C@@H]21 [Ramipril] (stock concentration (mM, diluted 1:100): 10) and report
Response: 2.05 (active)

====

Test system: S. cerevisiae AD1-9 (efflux-pump deficient), vegetative growth in YPD
Assay: growth sensitivity score (doubling time z-score vs DMSO controls); higher = slower growth, strongly negative scores also mark growth inhibition (complete suppression), active = hit call of the paper
Counter-ions that a name gives are not always drawn.
measure.name: growth sensitivity score
Number only, no unit.

Query: Given CCCCc1nc(Cl)c(CO)n1Cc1ccc(-c2ccccc2-c2nnn[nH]2)cc1 [Losartan potassium] (stock concentration (mM, diluted 1:100): 9.2) , state its recorded growth sensitivity score.
Response: -1.21

Query: // repeat for Nc1ccc2cn[nH]c2c1 [6-Aminoindazole] (stock concentration (mM, diluted 1:100): 10) and report
Response: -1.63

Query: // repeat for CC[C@H](C)C(=O)O[C@H]1C[C@H](O)C=C2C=C[C@H](C)[C@H](CC[C@@H](O)C[C@@H](O)CC(=O)O)[C@H]21 [Pravastatin sodium] (stock concentration (mM, diluted 1:100): 9.5) and report
Response: 13.6

Query: // repeat for CC(=O)CCCCn1c(=O)c2c(ncn2C)n(C)c1=O [Pentoxifylline] (stock concentration (mM, diluted 1:100): 10) and report
Response: -1.09

Query: // repeat for CCN1CCC[C@H]1CNC(=O)c1cc(S(N)(=O)=O)ccc1OC [Levosulpiride] (stock concentration (mM, diluted 1:100): 10) and report
Response: -0.24

Query: // repeat for CC[C@H]1OC(=O)[C@H](C)[C@@H](O[C@H]2C[C@@](C)(OC)[C@@H](O)[C@H](C)O2)[C@H](C)[C@@H](O[C@@H]2O[C@H](C)C[C@H](N(C)C)[C@H]2O)[C@](C)(OC)C[C@@H](C)C(=O)[C@H](C)[C@@H](O)[C@]1(C)O [Clarithromycin] (stock concentration (mM, diluted 1:100): 10) and report
Response: -1.97

Query: // repeat for CC1CCN(CCCC(=O)c2ccc(F)cc2)CC1 [Metylperon] (stock concentration (mM, diluted 1:100): 10) and report
Response: 1

Query: // repeat for Cc1c2oc3c(C)ccc(C(=O)N[C@@H]4C(=O)N[C@H](C(C)C)C(=O)N5CCC[C@H]5C(=O)N(C)CC(=O)N(C)[C@@H](C(C)C)C(=O)O[C@@H]4C)c3nc-2c(C(=O)N[C@@H]2C(=O)N[C@H](C(C)C)C(=O)N3CCC[C@H]3C(=O)N(C)CC(=O)N(C)[C@@H](C(C)C)C(=O)O[C@@H]2C)c(N)c1=O [Dactinomycin] (stock concentration (mM, diluted 1:100): 10) and report
Response: -0.59

Query: // repeat for C[C@]12CCC(=O)C=C1CC[C@@H]1[C@@H]2CC[C@@]2(C)[C@H]1CC[C@]2(O)C(=O)CO [Cortodoxone] (stock concentration (mM, diluted 1:100): 10) and report
Response: 6.84

Query: // repeat for CC(C)(C#N)c1cc(Cn2cncn2)cc(C(C)(C)C#N)c1 [Anastrozole] (stock concentration (mM, diluted 1:100): 10) and report
Response: -1.94

Query: // repeat for CCOC(=O)O[C@]1(C(=O)OCCl)CC[C@H]2[C@@H]3CCC4=CC(=O)C=C[C@]4(C)[C@H]3[C@@H](O)C[C@@]21C [Loteprednol etabonate] (stock concentration (mM, diluted 1:100): 10) and report
Response: 5.74

Query: // repeat for CC(C)c1nc(CN(C)C(=O)N[C@H](C(=O)N[C@@H](Cc2ccccc2)C[C@H](O)[C@H](Cc2ccccc2)NC(=O)OCc2cncs2)C(C)C)cs1 [Ritonavir] (stock concentration (mM, diluted 1:100): 10) and report
Response: 8.8

Query: // repeat for CC[C@@H]1C(=O)OC[C@@H]1Cc1cncn1C [Pilocarpine hydrochloride] (stock concentration (mM, diluted 1:100): 10) and report
Response: 0.16

Query: // repeat for COC(=O)C1=C(C)NC(C)=C(C(=O)OC)C1c1ccccc1[N+](=O)[O-] [Nifedipine] (stock concentration (mM, diluted 1:100): 10.7) and report
Response: 60

Query: // repeat for C[C@@H](O)[C@H]1C(=O)N2C(C(=O)O)=C(S[C@@H]3CN[C@H](C(=O)N(C)C)C3)[C@H](C)[C@H]12 [Meropenem] (stock concentration (mM, diluted 1:100): 11.4) and report
Response: 0.68

====

System: S. cerevisiae BY4741 (wild-type), vegetative growth in YPD
Test: growth sensitivity score (doubling time z-score vs DMSO controls); higher = slower growth, strongly negative scores also mark growth inhibition (complete suppression), active = hit call of the paper
Counter-ions that a name gives are not always drawn.
# growth sensitivity score per record follows
Number only, no unit.

Below, 3 molecules whose answers are already recorded.
COC(=O)C1=C(C)NC(C)=C(C(=O)OC2CCCN(Cc3ccccc3)C2)C1c1cccc([N+](=O)[O-])c1 (stereo not given) [Benidipine hydrochloride] (stock concentration (mM, diluted 1:100): 6)
1.95
O=C1N[C@H](C(=O)O)CS1 [Procysteine] (stock concentration (mM, diluted 1:100): 10)
-0.31
CC1(C)C[C@@H]1C(=O)N/C(=C\CCCCSC[C@H](N)C(=O)O)C(=O)O [Cilastatin] (stock concentration (mM, diluted 1:100): 9.4)
-0.97

Query: Given COc1cccc2c1C(=O)c1c(O)c3c(c(O)c1C2=O)C[C@@](O)(C(=O)CO)C[C@@H]3O[C@H]1C[C@H](N)[C@@H](O)[C@H](C)O1 [Epirubicin hydrochloride] (stock concentration (mM, diluted 1:100): 9.4) , state its recorded growth sensitivity score.
Response: 11.8

Query: // repeat for O=C(O)Cc1ccccc1Nc1c(Cl)cccc1Cl [Diclofenac] (stock concentration (mM, diluted 1:100): 10) and report
Response: 1.48

Query: // repeat for CC(C)C[C@H](NC(=O)[C@@H](COC(C)(C)C)NC(=O)[C@H](Cc1ccc(O)cc1)NC(=O)[C@H](CO)NC(=O)[C@H](Cc1c[nH]c2ccccc12)NC(=O)[C@H](Cc1cnc[nH]1)NC(=O)[C@@H]1CCC(=O)N1)C(=O)N[C@@H](CCCNC(=N)N)C(=O)N1CCC[C@H]1C(=O)NNC(N)=O [Goserelin acetate] (stock concentration (mM, diluted 1:100): 9.6) and report
Response: -0.77

Query: // repeat for CCN1CCC[C@H]1CNC(=O)c1cc(S(N)(=O)=O)ccc1OC [Levosulpiride] (stock concentration (mM, diluted 1:100): 10) and report
Response: 0.25

Query: // repeat for CC(=O)CCCCn1cnc2c1c(=O)n(C)c(=O)n2C [Lomifylline] (stock concentration (mM, diluted 1:100): 10) and report
Response: 0.79

Query: // repeat for O=c1n(CCCN2CCN(c3cccc(Cl)c3)CC2)nc2ccccn12 [Trazodone hydrochloride] (stock concentration (mM, diluted 1:100): 10) and report
Response: 0.24

Query: // repeat for CN1CCN2c3ncccc3Cc3ccccc3C2C1 (stereo not given) [Mirtazapine] (stock concentration (mM, diluted 1:100): 10) and report
Response: -0.03

====

Tested on: S. cerevisiae NKY1551 his4x/his4B, sporulating;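 note: active if sensitivity score above 5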
Assay: HIS4 meiotic recombination assay sensitivity score (z-score vs DMSO controls); higher = stronger inhibition of sporulation/recombination, active = hit call of the paper
Where a name gives a salt, the structure may show the parent alone.
Think of -0.05 as a floor: if HIS4 meiotic recombination assay sensitivity score stands on it or above, it is class 1; beneath it, class 0.

Would you please look over these solved cases?
Oc1ccc(C2CNCCc3c2cc(O)c(O)c3Cl)cc1 (stereo not given) [Fenoldopam mesylate] (stock concentration (mM, diluted 1:100): 7.7)
class 0
C[C@@H]1O[C@@H](OC[C@H]2O[C@@H](Oc3c(-c4ccc(O)c(O)c4)oc4cc(O)cc(O)c4c3=O)[C@H](O)[C@@H](O)[C@@H]2O)[C@H](O)[C@H](O)[C@H]1O [Rutin] (stock concentration (mM, diluted 1:100): 10)
class 0
Cc1ccc(O)c([C@H](CCN(C(C)C)C(C)C)c2ccccc2)c1 [Tolterodine tartrate] (stock concentration (mM, diluted 1:100): 6.9)
class 1

Moving on to the next compound.
Query: Item CN(CCOc1ccc(CC2SC(=O)NC2=O)cc1)c1ccccn1 (stereo not given) [Rosiglitazone maleate] (stock concentration (mM, diluted 1:100): 7.6) with HIS4 meiotic recombination assay sensitivity score of -0.05 or above?
Response: class 1
